This listing pairs compounds with measured GI50.
# System: SK-MEL-2
# Assay: NCI tumour cell line growth inhibition, 48 h
Activity calls are given as the source filed them. Cut-off read from the data, not from the text of the source: active = GI50 up to about 1.1 µM and inactive = higher.

Smiles structure	Assay system	Test value
CCOC(=O)CN1CCNCCN(CC(=O)OCC)CCNCC1	SK-MEL-2	> 100 µM (inactive)

query: // returns reported GI50 for input Cc1cc(NS(=O)(=O)c2ccc(NC(=O)c3cccc4c(Nc5ccc(S(=O)(=O)Nc6cc(C)on6)cc5)c5ccccc5nc34)cc2)no1
result: 30.3 µM (inactive)

query: // returns reported GI50 for input Brc1ccccc1/C=C\C1(c2ccccc2)OCCO1
result: 23 µM (inactive)

query: // returns reported GI50 for input O=S(=O)(N/C(=N\O)Nc1ccc(Cl)cc1)c1ccc(S(=O)(=O)c2ccccc2)s1
result: 17.9 µM (inactive)

query: // returns reported GI50 for input C/C(CC(=O)Nc1cccc(Cl)c1C)=N\NC(N)=S
result: > 100 µM (inactive)

====

# System: RPMI-8226
# Assay: NCI tumour cell line growth inhibition, 48 h
Active and inactive are the calls of the source. Rule as the data show it: active = GI50 up to about 1.1 µM and inactive = higher.
This listing pairs compounds with measured GI50.

Guide cases for GI50, answers given:
Compound	Test value
Cc1ccccc1Nc1cn(CCOc2ccccc2)c(=O)n(CCOc2ccccc2)c1=O	> 100 µM (inactive)
COC(=O)/C(C#N)=C(\Nc1ccccc1)N1CCCCC1	> 100 µM (inactive)
CC1CN=C(Nc2cccc(F)c2)S1 (stereo not drawn)	> 100 µM (inactive)

query: // returns reported GI50 for input N#CI1OC(=O)c2ccccc21
result: 38.5 µM (inactive)

query: // returns reported GI50 for input C=C1CN(Cc2ccccc2)[C@@H]2CCCCC[C@H](C#N)[C@H]12
result: 22.5 µM (inactive)

query: // returns reported GI50 for input O=C1CC(c2cccc([N+](=O)[O-])c2)C2(C(=O)NC(=S)NC2=O)C(c2cccc([N+](=O)[O-])c2)C1 (stereo not drawn)
result: 59.7 µM (inactive)

query: // returns reported GI50 for input Brc1c(C#CCC(c2ccccc2)(c2ccccc2)c2ccccc2)ccc(C#CCC(c2ccccc2)(c2ccccc2)c2ccccc2)c1Br
result: > 100 µM (inactive)

query: // returns reported GI50 for input O=C1N=C2SC=C(NC(=S)Nc3ccccc3)N2NC12c1ccccc1-c1ccccc12
result: > 10 µM (inactive)

query: // returns reported GI50 for input c1csc(-c2nnc(C34CC5CC(CC(C5)C3)C4)o2)c1
result: 36.2 µM (inactive)

query: // returns reported GI50 for input NC(=O)CCC(NC(=O)Cc1ccccc1)C(=O)O (stereo not drawn)
result: 1030 µM (inactive)

query: // returns reported GI50 for input CC(=O)OC1(C#N)CC2OC1C1C2N1C(=O)OC(C)(C)C (stereo not drawn)
result: > 100 µM (inactive)

query: // returns reported GI50 for input C/C=C/C1(C)/C(=N\O)C(C)(CCC)C(=O)N1O (stereo not drawn)
result: > 100 µM (inactive)

====

# Tested on: HOP-18
# Assay: NCI tumour cell line growth inhibition, 48 h
Activity calls are given as the source filed them. Rule as the data show it: active = GI50 up to about 1.1 µM and inactive = higher.
Write down one outcome, taken from active, inactive

// known answers, use as guide
Molecule	Class
O=C1Cc2ccccc2CCc2ccccc21	inactive
COCCOCOC(C)(C)[C@H](CCO)O[Si](c1ccccc1)(c1ccccc1)C(C)(C)C	inactive

query: Per the assay record, what outcome was assigned to CC(C)(C)N/N=N/c1cn(C2OC(CO)C(O)C2O)c(=O)[nH]c1=O (stereo unspecified) ?
result: inactive

query: Per the assay record, what outcome was assigned to O=C(CSc1nnc(Cc2ccccc2)o1)Nc1ccccc1 ?
result: inactive

query: Per the assay record, what outcome was assigned to CN1CCS(=O)(=O)NC(Cc2ccccc2)C(=O)N2CCCC2C1=O (stereo unspecified) ?
result: inactive

query: Per the assay record, what outcome was assigned to O=C(NN1C(=O)CS(=O)(=O)C1c1ccc(C(F)(F)F)cc1)c1ccncc1 (stereo unspecified) ?
result: inactive

query: Per the assay record, what outcome was assigned to O=C1c2ccccc2C(=O)C12CCc1ccccc12 ?
result: inactive

query: Per the assay record, what outcome was assigned to Oc1cc(-c2ccccc2)nc2cc3c(cc12)OCO3 ?
result: inactive

query: Per the assay record, what outcome was assigned to CC(C)(C)c1cc2nc(c1)C(C(F)(F)F)(C(F)(F)F)OB(Br)OC2(C(F)(F)F)C(F)(F)F ?
result: active

query: Per the assay record, what outcome was assigned to CNC(=O)OCc1nc(SSc2nc(COC(=O)NC)c(COC(=O)NC)n2C)n(C)c1COC(=O)NC ?
result: inactive

query: Per the assay record, what outcome was assigned to O=C(c1ccccc1)c1ccc(OCCOc2ccc(Nc3ccccc3)cc2)cc1 ?
result: inactive
